TESTED TARGET: GST-FliI LRR (mouse)
Sequence (Q9JJ28 whole entry, looked up): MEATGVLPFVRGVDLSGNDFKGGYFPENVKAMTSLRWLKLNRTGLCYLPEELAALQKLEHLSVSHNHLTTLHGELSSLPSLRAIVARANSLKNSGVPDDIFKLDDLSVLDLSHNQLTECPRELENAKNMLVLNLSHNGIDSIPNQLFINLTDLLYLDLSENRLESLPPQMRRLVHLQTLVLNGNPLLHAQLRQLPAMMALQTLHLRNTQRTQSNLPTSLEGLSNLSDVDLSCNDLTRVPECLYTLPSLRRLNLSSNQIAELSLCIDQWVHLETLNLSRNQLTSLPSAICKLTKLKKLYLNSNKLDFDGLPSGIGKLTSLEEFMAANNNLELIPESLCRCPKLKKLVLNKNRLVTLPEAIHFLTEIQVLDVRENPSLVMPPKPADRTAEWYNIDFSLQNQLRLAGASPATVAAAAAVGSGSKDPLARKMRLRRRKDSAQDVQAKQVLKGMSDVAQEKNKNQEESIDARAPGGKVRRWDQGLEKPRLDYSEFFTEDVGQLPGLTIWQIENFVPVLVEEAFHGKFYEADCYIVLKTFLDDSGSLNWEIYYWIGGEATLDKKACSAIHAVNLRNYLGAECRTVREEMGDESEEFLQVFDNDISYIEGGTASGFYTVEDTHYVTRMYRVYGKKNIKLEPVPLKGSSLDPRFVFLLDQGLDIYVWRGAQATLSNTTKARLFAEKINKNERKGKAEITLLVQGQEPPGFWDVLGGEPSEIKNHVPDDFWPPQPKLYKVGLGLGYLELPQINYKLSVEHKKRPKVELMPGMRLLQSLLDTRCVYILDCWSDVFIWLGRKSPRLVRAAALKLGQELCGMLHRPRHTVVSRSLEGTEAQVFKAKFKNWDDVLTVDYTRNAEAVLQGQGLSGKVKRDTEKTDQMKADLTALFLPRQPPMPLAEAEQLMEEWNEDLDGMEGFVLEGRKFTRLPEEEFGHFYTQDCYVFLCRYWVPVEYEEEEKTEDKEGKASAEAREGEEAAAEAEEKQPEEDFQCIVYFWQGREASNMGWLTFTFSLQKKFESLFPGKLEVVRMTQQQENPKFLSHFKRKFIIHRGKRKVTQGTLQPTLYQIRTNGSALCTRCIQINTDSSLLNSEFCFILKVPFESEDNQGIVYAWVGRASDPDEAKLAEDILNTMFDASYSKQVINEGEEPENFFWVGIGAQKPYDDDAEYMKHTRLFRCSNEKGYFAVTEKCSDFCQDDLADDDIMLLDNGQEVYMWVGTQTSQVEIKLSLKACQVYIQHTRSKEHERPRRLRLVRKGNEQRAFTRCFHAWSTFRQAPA
METHOD NOTES: pull-down
pKd: −log10 of the molar value.

{"SUBSTANCE": "NMMIIA rods (residues 1338–1960) (from UniProt P35579 1338-1960) (domain or fragment)", "pKd": 5.29}

From: paper PMC4462945
